target: HLA-A*02:01; assay: IEDB peptide-MHC binding, purified MHC/competitive/fluorescence; bounds were set here for any values at or beyond the usual limits of such assays; conditions: source organism: Zaire ebolavirus
pIC50: −log10 of the molar value.
Parameter pIC50: see the listing below.

monomer.sequence | pIC50
AVSSGKNIK | ≤ 3.79
TGPCAGDFA | ≤ 3.95
KLDISEATQ | ≤ 4.01
LDISEATQV | ≤ 4.14
AWQSVGHMM | ≤ 3.75

Please report the measured pIC50 for TGILQLPRD
≤ 3.23

Dear colleague, please send me the reported pIC50 for ELDHLGLDD when you can.
≤ 3.29

Respond only with pIC50 recorded for IHQGMHMVA
≤ 4.07

Please indicate pIC50 recorded for EVNSFKAAL
≤ 3.63
